This listing pairs substances with measured melting temperature.
- System: HeLa Kyoto;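 also: HeLa Kyoto cells synchronized by double thymidine or nocodazole block, proteins quantified by TMT10plex mass spectrometry, three independent biological replicates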
- Experiment notes: melting temperature (median over replicates), in situ; higher = more thermally stable
- Assay context: cell cycle stage: mitosis
Metric name: melting temperature (°C)

Substance | Metric name | Test value
MAAAGWRDGSGQEKYRLVVVGGGGVGKSALTIQFIQSYFVTDYDPTIEDSYTKQCVIDDRAARLDILDTAGQEEFGAMREQYMRTGEGFLLVFSVTDRGSFEEIYKFQRQILRVKDRDEFPMILIGNKADLDHQRQVTQEEGQQLARQLKVTYMEASAKIRMNVDQAFHELVRVIRKFQEQECPPSPEPTRKEKDKKGCHCVIF [RRAS2] | melting temperature | 55.3
MPHSYPALSAEQKKELSDIALRIVAPGKGILAADESVGSMAKRLSQIGVENTEENRRLYRQVLFSADDRVKKCIGGVIFFHETLYQKDDNGVPFVRTIQDKGIVVGIKVDKGVVPLAGTDGETTTQGLDGLSERCAQYKKDGADFAKWRCVLKISERTPSALAILENANVLARYASICQQNGIVPIVEPEILPDGDHDLKRCQYVTEKVLAAVYKALSDHHVYLEGTLLKPNMVTPGHACPIKYTPEEIAMATVTALRRTVPPAVPGVTFLSGGQSEEEASFNLNAINRCPLPRPWALTFSYGRALQASALNAWRGQRDNAGAATEEFIKRAEVNGLAAQGKYEGSGEDGGAAAQSLYIANHAY [ALDOC] | melting temperature | 57
MPAHLLQDDISSSYTTTTTITAPPSRVLQNGGDKLETMPLYLEDDIRPDIKDDIYDPTYKDKEGPSPKVEYVWRNIILMSLLHLGALYGITLIPTCKFYTWLWGVFYYFVSALGITAGAHRLWSHRSYKARLPLRLFLIIANTMAFQNDVYEWARDHRAHHKFSETHADPHNSRRGFFFSHVGWLLVRKHPAVKEKGSTLDLSDLEAEKLVMFQRRYYKPGLLMMCFILPTLVPWYFWGETFQNSVFVATFLRYAVVLNATWLVNSAAHLFGYRPYDKNISPRENILVSLGAVGEGFHNYHHSFPYDYSASEYRWHINFTTFFIDCMAALGLAYDRKKVSKAAILARIKRTGDGNYKSG [SCD] | melting temperature | 51.2
MAEGNTLISVDYEIFGKVQGVFFRKHTQAEGKKLGLVGWVQNTDRGTVQGQLQGPISKVRHMQEWLETRGSPKSHIDKANFNNEKVILKLDYSDFQIVK [ACYP1] | melting temperature | 52.7
MGLELFLDLVSQPSRAVYIFAKKNGIPLELRTVDLVKGQHKSKEFLQINSLGKLPTLKDGDFILTESSAILIYLSCKYQTPDHWYPSDLQARARVHEYLGWHADCIRGTFGIPLWVQVLGPLIGVQVPKEKVERNRTAMDQALQWLEDKFLGDRPFLAGQQVTLADLMALEELMQPVALGYELFEGRPRLAAWRGRVEAFLGAELCQEAHSIILSILEQAAKKTLPTPSPEAYQAMLLRIARIP [GSTT2] | melting temperature | 55.1
RAPGEF6 | melting temperature | 48.9
MAAPGLRLGAGRLFEMPAVLERLSRYNSTSQAFAEVLRLPKQQLRKLLYPLQEVERFLAPYGRQDLHLRIFDPSPEDIARADNIFTATERNRIDYVSSAVRIDHAPDLPRPEVCFIGRSNVGKSSLIKALFSLAPEVEVRVSKKPGHTKKMNFFKVGKHFTVVDMPGYGFRAPEDFVDMVETYLKERRNLKRTFLLVDSVVGIQKTDNIAIEMCEEFALPYVIVLTKIDKSSKGHLLKQVLQIQKFVNMKTQGCFPQLFPVSAVTFSGIHLLRCFIASVTGSLD [GTPBP8] | melting temperature | 52.8
